FYI, the data here is from PubChem BioAssay (NCATS).

tested on: PA-1; test: Primary qHTS to identify gynecologic anti-cancer compounds using libraries of approved drugs and bioactive compounds (AID 1345084); conditions: Gynecologic cancer cell panel viability, ATPlite luminescence, 48 h; series mostly up to 57.5 µM; note: nearly all actives have a fitted effect of over 55% in size
Results filed as inconclusive are left out. Active and inactive are the calls of the source. Calls come from the whole dose curve; as a rule, active = well fitted cell-killing curve with a large enough effect; inconclusive = small, poorly fitted or top-dose-only effect, or effect the other way; inactive = flat fitted curve, though single readings scatter.
Outcome (select one): TRUE = active, FALSE = inactive

Completed entries (count: 5):
In [3]: df
Out[3]:
                                   compound  test_target  answer_label
0  COC(=O)C1=COC(C)C2CN3CCC4(C(=O)Nc5ccccc54)C3CC12 (stereo unspecified)         PA-1         FALSE
1  C/C1=C/[C@@H](C)C/C=C/[C@H]2[C@@H]3O[C@]3(C)[C@@H](C)[C@H]3[C@H](Cc4c[nH]c5ccccc45)NC(=O)[C@]32C(=O)/C=C\C(=O)[C@@H]1O         PA-1         FALSE
2  C=C1[C@@H](C)[C@H]2[C@H](Cc3ccccc3)NC(=O)[C@]23OC(=O)/C=C/C(=O)CCC[C@@H](C)C/C=C/[C@H]3[C@@H]1O         PA-1          TRUE
3  C/C=C1/CN2CC[C@]34C(=Nc5ccccc53)[C@@H]2C[C@@H]1[C@H]4C(=O)OC         PA-1         FALSE
4  C/C=C(\C)C(=O)O[C@H]1CC2C(=C1C)[C@H]1OC(=O)[C@](C)(O)[C@]1(O)[C@H](OC(=O)CCC)C[C@@]2(C)OC(C)=O (stereo partly specified)         PA-1          TRUE

Alright, here's another compound for you.
// query Can you look up the reported call for COCC(C(=O)OC1CC2CCC(C1)N2C)c1ccccc1 (stereo unspecified) for me?
// result FALSE

----------
assay: NFAT Signaling Pathway (AID 444); conditions: Jurkat NFAT-bla M1, carbachol, beta-lactamase ratio, 5 h; at 38 µM (top of the series);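 note: carbachol stimulus at about its EC50 of 1 µM final; % is set by controls: 0 for no effect and ±100 for the full control effect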
Results filed as inconclusive are left out.
MEASURED_ATTRIBUTE: activity change, negative = inhibition (%)
Give just the numeric value; % need not be written.

Solved entries:
>>> print(df.to_string())
                            molecule_smiles  unit_text  test_result
0  CN1CCN(C(=O)O[C@@H]2c3nccnc3C(=O)N2c2ccc(Cl)cn2)CC1          %        -27.2
1           c1ccc2c(c1)OC[C@@H](C1=NCCN1)O2          %        -27.1
2  COc1ccc(CNC(=O)/C=C\c2ccc3[nH]cc(CCN(C)C)c3c2)cc1          %        -13.5
3                 CN1CCN(c2ccc3ccccc3n2)CC1          %        -20.6
4  COc1ccc(-n2nc(C(F)(F)F)cc2-c2ccc(Cl)cc2)cc1          %        -91.5
5  CCOC(=O)c1ncn2c1[C@H]1CCCN1C(=O)c1cc(OC)ccc1-2          %         7.15

// query What value of activity change, negative = inhibition has been recorded for this entry: CN1C(=O)CCS(=O)(=O)[C@H]1c1ccc(Cl)cc1
// result 2.77

// query What value of activity change, negative = inhibition has been recorded for this entry: COC(=O)N1CCN(C(=O)Cc2ccc(Cl)c(Cl)c2)[C@H](CN2CCCC2)C1
// result -16

// query What value of activity change, negative = inhibition has been recorded for this entry: Oc1ccc2c3c1O[C@H]1c4[nH]c5ccccc5c4C[C@]4(O)[C@H](C2)N(CC2CC2)CC[C@@]314
// result 3.02

// query What value of activity change, negative = inhibition has been recorded for this entry: N[C@H](C(=O)O)c1cc(=O)[nH]o1
// result 2.26

// query What value of activity change, negative = inhibition has been recorded for this entry: C[C@@H](Cc1ccc(OCC(=O)O)cc1)NC[C@H](O)c1cccc(Cl)c1
// result -11.2

// query What value of activity change, negative = inhibition has been recorded for this entry: COC(=O)c1cc2c(cn1)[nH]c1ccccc12
// result -0.308

// query What value of activity change, negative = inhibition has been recorded for this entry: O=C1NCN(c2ccccc2)C12CCN(C[C@H]1COc3ccccc3O1)CC2
// result 1.71

// query What value of activity change, negative = inhibition has been recorded for this entry: C=CCN1CC[C@@]23c4c5ccc(O)c4O[C@H]2/C(=N\N=C2/CC[C@@]4(O)[C@H]6Cc7ccc(O)c8c7[C@@]4(CCN6CC=C)[C@@H]2O8)CC[C@]3(O)[C@@H]1C5
// result -21.2

// query What value of activity change, negative = inhibition has been recorded for this entry: COc1cc(CCN)ccc1O
// result 5.48
